FYI, the data here is from ChEMBL document CHEMBL1133669.

The entries below are paired with their reported Ki.
biological target: Carbonic anhydrase 1 (Homo sapiens)
Sequence (P00915 whole entry): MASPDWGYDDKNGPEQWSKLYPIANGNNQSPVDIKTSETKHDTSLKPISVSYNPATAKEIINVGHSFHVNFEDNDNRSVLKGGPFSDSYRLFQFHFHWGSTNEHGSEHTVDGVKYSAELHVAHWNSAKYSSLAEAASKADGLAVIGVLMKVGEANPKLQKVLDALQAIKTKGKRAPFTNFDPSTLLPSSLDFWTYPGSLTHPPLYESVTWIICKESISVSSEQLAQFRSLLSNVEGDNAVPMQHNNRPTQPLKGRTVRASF
Report the value in nM with no unit label.

Below, each entry is followed by its recorded Ki result.
smilesCode | Ki [nM]
Cc1cc(-c2ccccc2)cc(C)[n+]1CC(=O)Nc1ccc(S(N)(=O)=O)cc1Cl | 600
Cc1cc(-c2ccccc2)cc(C)[n+]1CC(=O)OCc1ccc(S(N)(=O)=O)cc1 | 1350
CCc1cc(-c2ccccc2)cc(CC)[n+]1CC(=O)Nc1ccc2nc(S(N)(=O)=O)sc2c1 | 11

With those in mind, consider the next compound.
State its Ki on Carbonic anhydrase 1 (Homo sapiens): CCc1cc(-c2ccccc2)cc(CC)[n+]1CC(=O)Nc1ccc(S(=O)(=O)/N=c2/sc(S(N)(=O)=O)nn2C)cc1.[O-][Cl+3]([O-])([O-])[O-] 13
